TGI listing for selected compounds.
Tested on: CAKI-1 renal
assay: NCI tumour cell line growth inhibition, 48 h

q: Record request: TGI value, item `C[C@H](CN1CC(=O)NC(=O)C1)N1CC(=O)NC(=O)C1`
a: > 100 µM

Next:
q: Record request: TGI value, item COC1=C2C[C@H](O)C(C)C[C@@]2(OC)OC1=O (stereo partly specified)
a: > 100 µM

###

Test system: COLO 205 colon
assay: NCI tumour cell line growth inhibition, 48 h
Where a SMILES comes first, the peptide text is derived from it. [ ]: non-standard residue; d: D form. pGlu = O=C1CC[CH](C(=O)O)N1
TGI listing for selected molecules.

The examples below pair each entry with its known result.
q: Record request: TGI value, item CN(C(=O)C12C3(C(=O)C(C)(C)C)C4C5(C#N)C3C1(C(=O)C(C)(C)C)C5C42C(=O)C(C)(C)C)C(C)(C)C (stereo not drawn)
a: > 50 µM

q: Record request: TGI value, item `CN(C)C(=S)/N=c1\ss/c(=N\C(=S)N(C)C)n1-c1ccc(Cl)cc1`
a: > 100 µM

q: Record request: TGI value, item `O=C(O)CN(CC(=O)O)Cc1ccn(-c2cccc(-n3ccc(CN(CC(=O)O)CC(=O)O)n3)n2)n1`
a: > 100 µM

q: Record request: TGI value, item `COc1ccc([I+]c2ccccc2)cc1`
a: > 100 µM

q: Record request: TGI value, item `O=c1cc(-c2ccccc2)[nH]c2c(Cl)cccc12`
a: > 100 µM

Next:
q: Record request: TGI value, item CC(NC(=O)C(Cc1cnc[nH]1)NC(=O)C1CCC(=O)N1)C(N)=O (stereo not drawn) ([pGlu]-His-Ala-NH2; configuration not given here)
a: > 100 µM

q: Record request: TGI value, item CCOc1ccccc1N1C(=O)C(=O)C(c2nc3ccccc3o2)/C(=N\N)C1=O (stereo not drawn)
a: > 100 µM

q: Record request: TGI value, item `S=c1nc2sc3c(c2c(Nc2ccc(Br)cc2)[nH]1)CCN(N1CCc2c(sc4nc(=S)[nH]c(Nc5ccc(Br)cc5)c24)C1)C3`
a: > 50 µM

q: Record request: TGI value, item NC(=O)CCC(NC(=O)c1cccc2c(=O)c3ccccc3[nH]c12)C(=O)O (stereo not drawn)
a: > 100 µM

###

Tested on: SF-268 CNS
assay: NCI tumour cell line growth inhibition, 48 h
TGI listing for selected compounds.

q: Give the reported TGI for `NC(CC(=O)Nc1ccc(Cl)cc1)=Nc1ccccc1` (system: SF-268 CNS).
a: > 100 µM

Next:
q: Give the reported TGI for `CCOC(=O)c1nc2cc(C(F)(F)F)ccc2nc1Nc1ccc(F)cc1` (system: SF-268 CNS).
a: > 100 µM

###

Test system: SF-539 CNS
assay: NCI tumour cell line growth inhibition, 48 h
value_kind: TGI (µM)
// note: answer is a bare numeric in µM

The examples below pair each entry with its known result.
q: Record request: TGI value, item `O=C(Cn1c(=O)oc2ccc(C(=O)c3ccccc3Cl)cc21)c1ccc([N+](=O)[O-])cc1`
a: 65.9

q: Record request: TGI value, item `CN1CCN(C(=O)c2c(NC(=O)NS(=O)(=O)c3ccccc3)sc3c2CCCCC3)CC1`
a: 69.9

q: Record request: TGI value, item Oc1ccc2ccccc2c1C1NN=C(c2ccccc2)S1 (configuration not stated)
a: 16

Next:
q: Record request: TGI value, item `CC(=O)Nc1ccc(-c2nnc(SCC(=O)Nc3cccc([N+](=O)[O-])c3)o2)cc1`
a: 31.4

q: Record request: TGI value, item `COC(=O)c1ccc(NC(=O)c2cc(OC)c(OC)c(OC)c2)cc1`
a: 5.5

q: Record request: TGI value, item CC(C)=CCCC1(Sc2ccccc2)C(=O)OCC1C=C(C)C (configuration not stated)
a: 47.9

q: Record request: TGI value, item O=CC(Br)C(Br)c1ccccc1 (configuration not stated)
a: 4.36

q: Record request: TGI value, item COc1ccc(SC2c3ccc(C)cc3Oc3nc(N)c(C#N)c(N)c32)cc1 (configuration not stated)
a: 3
